target: hAM2 receptor (CALCRL:RAMP3) (Homo sapiens, UniProt O60896+Q16602); construct: expressed in transfected cells; host or cells: GeneBLAzer CALCRL:RAMP3-CRE-bla Freestyle 293F; assay: AM2 receptor antagonist activity measured by cAMP assay (HTRF); assay type: cell-based; settings: GeneBLAzer CALCRL:RAMP3-CRE-bla Freestyle 293F cells; agonist human adrenomedullin; read-out: hAM2-R IC50 Ave
Sequence (Q16602 23-461): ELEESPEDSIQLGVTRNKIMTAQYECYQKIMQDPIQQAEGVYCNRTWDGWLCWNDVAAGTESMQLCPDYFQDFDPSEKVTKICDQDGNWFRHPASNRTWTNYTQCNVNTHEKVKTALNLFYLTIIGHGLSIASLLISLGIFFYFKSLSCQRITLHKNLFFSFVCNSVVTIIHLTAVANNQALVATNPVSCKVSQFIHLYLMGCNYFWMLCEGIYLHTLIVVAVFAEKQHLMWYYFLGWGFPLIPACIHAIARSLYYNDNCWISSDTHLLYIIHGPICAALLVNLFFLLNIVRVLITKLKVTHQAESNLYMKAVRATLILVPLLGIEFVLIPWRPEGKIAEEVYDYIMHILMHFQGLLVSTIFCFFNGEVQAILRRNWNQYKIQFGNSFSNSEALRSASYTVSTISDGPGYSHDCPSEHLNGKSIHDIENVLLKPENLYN
Sequence (O60896 24-148): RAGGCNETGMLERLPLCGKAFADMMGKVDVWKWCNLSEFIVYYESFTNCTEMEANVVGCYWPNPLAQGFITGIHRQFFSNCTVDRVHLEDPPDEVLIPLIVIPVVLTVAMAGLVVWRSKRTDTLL
Bridge positions count the residues as written; N and C are the ends. Square brackets hold non-standard residues; d marks the D form. Peptide text beside a SMILES is read from it. * marks the point of attachment. Phe(2-CONH2) = NC(=O)c1ccccc1C[C@H](N)C(=O)O; Imidazole4carbonyl = O=C(c1cnc[nH]1)*; Picolinoyl(5-F) = O=C(c1ccc(F)cn1)*; Orn(iPr) = CC(C)NCCC[C@H](N)C(=O)O; Oxazole2carbonyl = O=C(c1ncco1)*; 3Pal = N[C@@H](Cc1cccnc1)C(=O)O; ΔPro = O=C(O)[C@@H]1C=CCN1; X12 = Cc1cccnc1C(=O)*
testReadout: pIC50
Entry type: numeric. Quantity: pIC50, the -log10 of concentration in molar units.

Take a look at these entries with their results.
{"compound": "CC(C)NCCC[C@@H]1NC(=O)[C@@H](NC(=O)[C@H](Cc2ccccc2C(N)=O)NC(=O)[C@H](NC(=O)c2ncco2)C(C)C)CSSC[C@@H](C(=O)N[C@@H](Cc2cccnc2)C(N)=O)NC(=O)[C@H](Cc2cccnc2)NC(=O)[C@@H]2C=CCN2C(=O)CNC(=O)[C@H](C(C)C)NC(=O)[C@H](CC(=O)O)NC1=O [Compound 58] (Oxazole2carbonyl-[dV][Phe(2-CONH2)]C[Orn(iPr)]DVG[ΔPro][3Pal]C[3Pal]-NH2; disulfide 3-10)", "targetUnderTest": "hAM2 receptor (CALCRL:RAMP3) (Homo sapiens, UniProt O60896+Q16602)", "pIC50": 6.32}
{"compound": "Cc1cccnc1C(=O)N[C@@H](C(=O)N[C@@H](Cc1ccc(O)cc1)C(=O)N[C@H]1CSSC[C@@H](C(=O)N[C@@H](Cc2cccnc2)C(N)=O)NC(=O)[C@H](Cc2ccccc2)NC(=O)[C@@H]2CCCN2C(=O)CNC(=O)[C@H](C(C)C)NC(=O)[C@H](CC(=O)O)NC(=O)[C@H](CCCNC(=N)N)NC1=O)C(C)C [Compound 34] (X12-[dV]YCRDVGPFC[3Pal]-NH2; disulfide 3-10)", "targetUnderTest": "hAM2 receptor (CALCRL:RAMP3) (Homo sapiens, UniProt O60896+Q16602)", "pIC50": 8.10}
{"compound": "CC(C)[C@@H]1NC(=O)[C@H](CC(=O)O)NC(=O)[C@H](CCCNC(=N)N)NC(=O)[C@@H](NC(=O)[C@H](Cc2ccc(O)cc2)NC(=O)[C@H](NC(=O)c2cnc[nH]2)C(C)C)CSSC[C@@H](C(=O)N[C@@H](Cc2cccnc2)C(N)=O)NC(=O)[C@H](Cc2ccccc2)NC(=O)[C@@H]2CCCN2C(=O)CNC1=O [Compound 37] (Imidazole4carbonyl-[dV]YCRDVGPFC[3Pal]-NH2; disulfide 3-10)", "targetUnderTest": "hAM2 receptor (CALCRL:RAMP3) (Homo sapiens, UniProt O60896+Q16602)", "pIC50": 6.42}
{"compound": "CC(C)[C@@H]1NC(=O)[C@H](CC(=O)O)NC(=O)[C@H](CCCNC(=N)N)NC(=O)[C@@H](NC(=O)[C@H](Cc2ccc(O)cc2)NC(=O)[C@H](NC(=O)c2ncco2)C(C)C)CSSC[C@@H](C(=O)N[C@@H](Cc2cccnc2)C(N)=O)NC(=O)[C@H](Cc2cccnc2)NC(=O)[C@@H]2CCCN2C(=O)CNC1=O [Compound 11] (Oxazole2carbonyl-[dV]YCRDVGP[3Pal]C[3Pal]-NH2; disulfide 3-10)", "targetUnderTest": "hAM2 receptor (CALCRL:RAMP3) (Homo sapiens, UniProt O60896+Q16602)", "pIC50": 7.60}

In: GET /values?readout=pIC50&item= CC(C)NCCC[C@@H]1NC(=O)[C@@H](NC(=O)[C@H](Cc2ccccc2C(N)=O)NC(=O)[C@H](NC(=O)c2ccc(F)cn2)C(C)C)CSSC[C@@H](C(=O)N[C@@H](Cc2cccnc2)C(N)=O)NC(=O)[C@H](Cc2cccnc2)NC(=O)[C@@H]2CCCN2C(=O)CNC(=O)[C@H](C(C)C)NC(=O)[C@H](CC(=O)O)NC1=O [Compound 39] ({Picolinoyl(5-F)}-[dV][Phe(2-CONH2)]C[Orn(iPr)]DVGP[3Pal]C[3Pal]-NH2; disulfide 3-10)
Out: 6.56

====

Overview of reported pIC50 across a group of molecules:
biological target: hAM2 receptor (CALCRL:RAMP3) (Homo sapiens, UniProt O60896+Q16602); construct: expressed in transfected cells; host or cells: GeneBLAzer CALCRL:RAMP3-CRE-bla Freestyle 293F; test: AM2 receptor antagonist activity measured by cAMP assay (HTRF); assay type: cell-based; details: GeneBLAzer CALCRL:RAMP3-CRE-bla Freestyle 293F cells; agonist human adrenomedullin; read-out: hAM2-R IC50 Ave
Numbered stars: 1 amine (or outer) side, 2 acyl side, 3 side chain; on linkers, the order of the positions; unused ones are H or OH. Bridge positions count the residues as written; N and C are the ends. Square brackets hold non-standard residues; d marks the D form. Peptide text beside a SMILES is read from it. * marks the point of attachment. Phe(3-CONH2) = NC(=O)c1cccc(C[C@H](N)C(=O)O)c1; X5 = O=C([C@H](Cc1ccc(CO)cc1)N[*:1])[*:2]; Imidazole4carbonyl = O=C(c1cnc[nH]1)*; Picolinoyl(5-F) = O=C(c1ccc(F)cn1)*; Orn(iPr) = CC(C)NCCC[C@H](N)C(=O)O; Benzoyl(4-F) = O=C(c1ccc(F)cc1)*; Oxazole2carbonyl = O=C(c1ncco1)*; 3Pal = N[C@@H](Cc1cccnc1)C(=O)O; ΔPro = O=C(O)[C@@H]1C=CCN1; Orn = NCCC[C@H](N)C(=O)O; Dap = NC[C@H](N)C(=O)O
Entry type: numeric. Quantity: pIC50, the -log10 of concentration in molar units.

In: GET /values?readout=pIC50&item= CC(C)[C@@H]1NC(=O)[C@H](CC(=O)O)NC(=O)[C@H](CCCNC(=N)N)NC(=O)[C@@H](NC(=O)[C@H](Cc2ccc(O)cc2)NC(=O)[C@H](NC(=O)c2cnc[nH]2)C(C)C)CSSC[C@@H](C(=O)N[C@@H](Cc2cccnc2)C(N)=O)NC(=O)[C@H](Cc2ccccc2)NC(=O)[C@@H]2CCCN2C(=O)CNC1=O [Compound 47] (Imidazole4carbonyl-[dV]YCRDVGPFC[3Pal]-NH2; disulfide 3-10)
Out: 6.63

In: What do you get for CC(C)NCCC[C@@H]1NC(=O)[C@@H](NC(=O)[C@H](Cc2ccc(O)cc2)NC(=O)[C@H](NC(=O)c2ncco2)C(C)C)CSSC[C@@H](C(=O)N[C@@H](Cc2cccnc2)C(N)=O)NC(=O)[C@H](Cc2cccc(C(N)=O)c2)NC(=O)[C@@H]2C=CCN2C(=O)CNC(=O)[C@H](C(C)C)NC(=O)[C@H](CC(=O)O)NC1=O [Compound 67] (Oxazole2carbonyl-[dV]YC[Orn(iPr)]DVG[ΔPro][Phe(3-CONH2)]C[3Pal]-NH2; disulfide 3-10) ?
Out: 6.99

In: What do you get for CC(C)[C@@H]1NC(=O)[C@H](CC(=O)O)NC(=O)[C@H](CCCN)NC(=O)[C@@H](NC(=O)[C@H](Cc2ccc(O)cc2)NC(=O)[C@H](NC(=O)c2ccc(F)cn2)C(C)C)CSSC[C@@H](C(=O)N[C@@H](Cc2cccnc2)C(N)=O)NC(=O)[C@H](Cc2ccc(CO)cc2)NC(=O)[C@@H]2CCCN2C(=O)CNC1=O [Compound 56] ({Picolinoyl(5-F)}-[dV]YC[Orn]DVGP[X5]C[3Pal]-NH2; disulfide 3-10) ?
Out: 7.26

In: What do you get for CC(C)[C@@H]1NC(=O)[C@H](CC(=O)O)NC(=O)[C@H](CN)NC(=O)[C@@H](NC(=O)[C@H](Cc2ccc(O)cc2)NC(=O)[C@H](NC(=O)c2ccc(F)cc2)C(C)C)CSSC[C@@H](C(=O)N[C@@H](Cc2cccnc2)C(N)=O)NC(=O)[C@H](Cc2ccc(O)cc2)NC(=O)[C@@H]2CCCN2C(=O)CNC1=O [Compound 7] ({Benzoyl(4-F)}-[dV]YC[Dap]DVGPYC[3Pal]-NH2; disulfide 3-10) ?
Out: 7.37

====

molecular target: hAM2 receptor (CALCRL:RAMP3) (Homo sapiens, UniProt O60896+Q16602); construct: expressed in transfected cells; host or cells: GeneBLAzer CALCRL:RAMP3-CRE-bla Freestyle 293F; test: AM2 receptor antagonist activity measured by cAMP assay (HTRF); format: cell-based; details: GeneBLAzer CALCRL:RAMP3-CRE-bla Freestyle 293F cells; agonist human adrenomedullin; read-out: hAM2-R IC50 Ave
Numbered stars: 1 amine (or outer) side, 2 acyl side, 3 side chain; on linkers, the order of the positions; unused ones are H or OH. Bridge positions count the residues as written; N and C are the ends. Square brackets hold non-standard residues; d marks the D form. Peptide text beside a SMILES is read from it. * marks the point of attachment. Phe(2-CONH2) = NC(=O)c1ccccc1C[C@H](N)C(=O)O; X5 = O=C([C@H](Cc1ccc(CO)cc1)N[*:1])[*:2]; X14 = CCN(CC)CCC[C@H](N[*:1])C(=O)[*:2]; Lys(iPr) = CC(C)NCCCC[C@H](N)C(=O)O; Picolinoyl(5-F) = O=C(c1ccc(F)cn1)*; Orn(iPr) = CC(C)NCCC[C@H](N)C(=O)O; Oxazole2carbonyl = O=C(c1ncco1)*; 3Pal = N[C@@H](Cc1cccnc1)C(=O)O; Picolinoyl = O=C(c1ccccn1)*; Orn = NCCC[C@H](N)C(=O)O; X8 = CC(C)NCCOCCOCC(=O)*; X1 = O=C(c1ncccc1F)*
testReadout: IC50 (nM)
Output spec: scalar in nM, unitless text.

{"compound": "CC(C)NCCCC[C@@H]1NC(=O)[C@@H](NC(=O)[C@H](Cc2ccccc2C(N)=O)NC(=O)[C@H](NC(=O)c2ncco2)C(C)C)CSSC[C@@H](C(=O)N[C@@H](Cc2cccnc2)C(N)=O)NC(=O)[C@H](Cc2cccnc2)NC(=O)[C@@H]2CCCN2C(=O)CNC(=O)[C@H](C(C)C)NC(=O)[C@H](CC(=O)O)NC1=O [Compound 41] (Oxazole2carbonyl-[dV][Phe(2-CONH2)]C[Lys(iPr)]DVGP[3Pal]C[3Pal]-NH2; disulfide 3-10)", "valueUnit": "nM", "readoutNumber": 1020}

In: Form entry - test system: hAM2 receptor (CALCRL:RAMP3) (Homo sapiens, UniProt O60896+Q16602); read-out: IC50; compound: CC(C)[C@@H]1NC(=O)[C@H](CC(=O)O)NC(=O)[C@H](CCCNC(=N)N)NC(=O)[C@@H](NC(=O)[C@H](Cc2ccc(O)cc2)NC(=O)[C@H](NC(=O)c2ncccc2F)C(C)C)CSSC[C@@H](C(=O)N[C@@H](Cc2cccnc2)C(N)=O)NC(=O)[C@H](Cc2ccccc2)NC(=O)[C@@H]2CCCN2C(=O)CNC1=O [Compound 17] (X1-[dV]YCRDVGPFC[3Pal]-NH2; disulfide 3-10)
Out: 7.1

In: What do you get for CC(C)NCCOCCOCC(=O)NCCC[C@@H]1NC(=O)[C@@H](NC(=O)[C@H](Cc2ccc(O)cc2)NC(=O)[C@H](NC(=O)c2ccc(F)cn2)C(C)C)CSSC[C@@H](C(=O)N[C@@H](Cc2cccnc2)C(N)=O)NC(=O)[C@H](Cc2ccccc2)NC(=O)[C@@H]2CCCN2C(=O)CNC(=O)[C@H](C(C)C)NC(=O)[C@H](CC(=O)O)NC1=O [Compound 13] ({Picolinoyl(5-F)}-[dV]YC[Orn](X8)DVGPFC[3Pal]-NH2; disulfide 3-10) ?
Out: 26

In: What do you get for CCN(CC)CCC[C@@H]1NC(=O)[C@@H](NC(=O)[C@H](Cc2ccc(O)cc2)NC(=O)[C@H](NC(=O)c2ccccn2)C(C)C)CSSC[C@@H](C(=O)N[C@@H](Cc2cccnc2)C(N)=O)NC(=O)[C@H](Cc2ccccc2)NC(=O)[C@@H]2CCCN2C(=O)CNC(=O)[C@H](C(C)C)NC(=O)[C@H](CC(=O)O)NC1=O [Compound 24] (Picolinoyl-[dV]YC[X14]DVGPFC[3Pal]-NH2; disulfide 3-10) ?
Out: 128

In: What do you get for CC(C)NCCC[C@@H]1NC(=O)[C@@H](NC(=O)[C@H](Cc2ccc(O)cc2)NC(=O)[C@H](NC(=O)c2ccc(F)cn2)C(C)C)CSSC[C@@H](C(=O)N[C@@H](Cc2cccnc2)C(N)=O)NC(=O)[C@H](Cc2ccc(CO)cc2)NC(=O)[C@@H]2CCCN2C(=O)CNC(=O)[C@H](C(C)C)NC(=O)[C@H](CC(=O)O)NC1=O [Compound 61] ({Picolinoyl(5-F)}-[dV]YC[Orn(iPr)]DVGP[X5]C[3Pal]-NH2; disulfide 3-10) ?
Out: 89
